Reported viability, T/C values for the following compounds.
tested on: 188146-221-R-J1-PDC complex spheroid viability; assay: Anticancer human tumor 188146-221-R-J1-PDC patient-derived colon adenocarcinoma cell line growth inhibition [POLQ]; conditions: second compound 10 µM; first compound 0.00316 µM; hits give low values
RECORDED_ENDPOINT: viability, T/C (%)

- Cn1ncnc1[C@H]1c2n[nH]c(=O)c3cc(F)cc(c23)N[C@@H]1c1ccc(F)cc1 + Nc1ccc(C#CCN(C(=O)Cc2ncc(C(F)(F)F)cc2C(F)(F)F)c2ccc(F)cc2)nn1: 116
- C=CCn1c(=O)c2cnc(Nc3ccc(N4CCN(C)CC4)cc3)nc2n1-c1cccc(C(C)(C)O)n1 + COC1C(OC(N)=O)C(O)C(Oc2ccc3c(O)c(NC(=O)c4ccc(O)c(CC=C(C)C)c4)c(=O)oc3c2C)OC1(C)C: 109
- COc1cccc(OCCCN)c1-c1cc(Nc2cnc(C#N)cn2)n[nH]1 + Nc1ccc(C#CCN(C(=O)Cc2ncc(C(F)(F)F)cc2C(F)(F)F)c2ccc(F)cc2)nn1: 119
- COc1cccc(OCCCN)c1-c1cc(Nc2cnc(C#N)cn2)n[nH]1 + COC1C(OC(N)=O)C(O)C(Oc2ccc3c(O)c(NC(=O)c4ccc(O)c(CC=C(C)C)c4)c(=O)oc3c2C)OC1(C)C: 103
- C=CCn1c(=O)c2cnc(Nc3ccc(N4CCN(C)CC4)cc3)nc2n1-c1cccc(C(C)(C)O)n1 + Cc1cccc(N(C)C(=O)C2C(O)CCN2c2nc(C)cc(C(F)(F)F)c2C#N)c1: 90.7
- Cn1ncnc1[C@H]1c2n[nH]c(=O)c3cc(F)cc(c23)N[C@@H]1c1ccc(F)cc1 + COC1C(OC(N)=O)C(O)C(Oc2ccc3c(O)c(NC(=O)c4ccc(O)c(CC=C(C)C)c4)c(=O)oc3c2C)OC1(C)C: 111
- CC[C@@]1(O)C(=O)OCc2c1cc1n(c2=O)Cc2cc3c(CN(C)C)c(O)ccc3nc2-1 + Cc1cccc(N(C)C(=O)C2C(O)CCN2c2nc(C)cc(C(F)(F)F)c2C#N)c1: 92.4
- COc1cccc(OCCCN)c1-c1cc(Nc2cnc(C#N)cn2)n[nH]1 + Cc1cccc(N(C)C(=O)C2C(O)CCN2c2nc(C)cc(C(F)(F)F)c2C#N)c1: 96
- CC[C@@]1(O)C(=O)OCc2c1cc1n(c2=O)Cc2cc3c(CN(C)C)c(O)ccc3nc2-1 + COC1C(OC(N)=O)C(O)C(Oc2ccc3c(O)c(NC(=O)c4ccc(O)c(CC=C(C)C)c4)c(=O)oc3c2C)OC1(C)C: 99.5
- CCc1c2c(nc3ccc(O)cc13)-c1cc3c(c(=O)n1C2)COC(=O)[C@]3(O)CC + Nc1ccc(C#CCN(C(=O)Cc2ncc(C(F)(F)F)cc2C(F)(F)F)c2ccc(F)cc2)nn1: 98.6
- C=CCn1c(=O)c2cnc(Nc3ccc(N4CCN(C)CC4)cc3)nc2n1-c1cccc(C(C)(C)O)n1 + Nc1ccc(C#CCN(C(=O)Cc2ncc(C(F)(F)F)cc2C(F)(F)F)c2ccc(F)cc2)nn1: 114

###

system: 188146-221-R-J1-PDC complex spheroid viability; assay: Anticancer human tumor 188146-221-R-J1-PDC cell line growth inhibition [POLQ]; conditions: second compound 0.316 µM; first compound 0.01 µM; hits give low values;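 note: spheroids exposed to compounds for seven days; 100% = DMSO vehicle control viability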
RECORDED_ENDPOINT: viability, T/C (%)

* C=CCn1c(=O)c2cnc(Nc3ccc(N4CCN(C)CC4)cc3)nc2n1-c1cccc(C(C)(C)O)n1 + Nc1ccc(C#CCN(C(=O)Cc2ncc(C(F)(F)F)cc2C(F)(F)F)c2ccc(F)cc2)nn1 | 104
* CCc1c2c(nc3ccc(O)cc13)-c1cc3c(c(=O)n1C2)COC(=O)[C@]3(O)CC + Nc1ccc(C#CCN(C(=O)Cc2ncc(C(F)(F)F)cc2C(F)(F)F)c2ccc(F)cc2)nn1 | 73.1
* C=CCn1c(=O)c2cnc(Nc3ccc(N4CCN(C)CC4)cc3)nc2n1-c1cccc(C(C)(C)O)n1 + COC1C(OC(N)=O)C(O)C(Oc2ccc3c(O)c(NC(=O)c4ccc(O)c(CC=C(C)C)c4)c(=O)oc3c2C)OC1(C)C | 106
* Cn1ncnc1[C@H]1c2n[nH]c(=O)c3cc(F)cc(c23)N[C@@H]1c1ccc(F)cc1 + COC1C(OC(N)=O)C(O)C(Oc2ccc3c(O)c(NC(=O)c4ccc(O)c(CC=C(C)C)c4)c(=O)oc3c2C)OC1(C)C | 93.8
* COc1cccc(OCCCN)c1-c1cc(Nc2cnc(C#N)cn2)n[nH]1 + COC1C(OC(N)=O)C(O)C(Oc2ccc3c(O)c(NC(=O)c4ccc(O)c(CC=C(C)C)c4)c(=O)oc3c2C)OC1(C)C | 80.6
* CCc1c2c(nc3ccc(O)cc13)-c1cc3c(c(=O)n1C2)COC(=O)[C@]3(O)CC + COC1C(OC(N)=O)C(O)C(Oc2ccc3c(O)c(NC(=O)c4ccc(O)c(CC=C(C)C)c4)c(=O)oc3c2C)OC1(C)C | 88.6
* COc1cccc(OCCCN)c1-c1cc(Nc2cnc(C#N)cn2)n[nH]1 + Cc1cccc(N(C)C(=O)C2C(O)CCN2c2nc(C)cc(C(F)(F)F)c2C#N)c1 | 89.7
* CC[C@@]1(O)C(=O)OCc2c1cc1n(c2=O)Cc2cc3c(CN(C)C)c(O)ccc3nc2-1 + Nc1ccc(C#CCN(C(=O)Cc2ncc(C(F)(F)F)cc2C(F)(F)F)c2ccc(F)cc2)nn1 | 97.5
* Cn1ncnc1[C@H]1c2n[nH]c(=O)c3cc(F)cc(c23)N[C@@H]1c1ccc(F)cc1 + Cc1cccc(N(C)C(=O)C2C(O)CCN2c2nc(C)cc(C(F)(F)F)c2C#N)c1 | 101
* C=CCn1c(=O)c2cnc(Nc3ccc(N4CCN(C)CC4)cc3)nc2n1-c1cccc(C(C)(C)O)n1 + Cc1cccc(N(C)C(=O)C2C(O)CCN2c2nc(C)cc(C(F)(F)F)c2C#N)c1 | 88.7
